- Tested target: T1, PUF4 RNA-binding domain (Saccharomyces cerevisiae, UniProt P25339 537-888)
- T1 sequence: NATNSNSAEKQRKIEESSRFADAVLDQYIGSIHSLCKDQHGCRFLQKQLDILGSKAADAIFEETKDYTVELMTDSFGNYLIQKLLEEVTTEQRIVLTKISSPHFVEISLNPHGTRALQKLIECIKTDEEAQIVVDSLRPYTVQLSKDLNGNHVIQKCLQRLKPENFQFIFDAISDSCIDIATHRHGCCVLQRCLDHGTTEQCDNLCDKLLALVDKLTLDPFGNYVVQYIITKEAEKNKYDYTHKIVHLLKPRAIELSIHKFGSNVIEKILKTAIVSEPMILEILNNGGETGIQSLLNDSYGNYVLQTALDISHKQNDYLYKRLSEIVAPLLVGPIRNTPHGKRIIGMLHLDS
- Procedure text: Mg; RNA-MaP; 20 mM Na-HEPES pH 7.4, 30 mM KOAc, 0.75 mM MgCl2, 0.1% Tween-20, 5% glycerol, 0.1 mg/mL BSA, 2 mM DTT; 25 C; 0.0125-409.6 nM protein
- Test parameters: tags: N-His6-TEV cleaved; C-SNAP kept, Cy3B-labelled; label: tethered on chip by stalled RNA polymerase
Readout type: pKd
pKd field: float, defined as -log10 of concentration (mol/L).

# Binder, Recorded result
records = [
    ("UCUCUUUGUAAUAUUAUCUCUU (ssRNA) [Ia_S1_P5E.1_K5.1_C5.1_H5.1_A5.1_[T5A]_F5.1_T5.1]", 8.20),
]

Supply measured pKd of UCUCUUUGACACUAUUAUAUCUCUU (ssRNA) [Id_ii_S1_P4E.4_K4.3_C4.2_[C-2T]_[T-1G]_H4.3_A4.1_F4.1_T4.2_[G10T]_[T11A]] in your reply.
5.66

Please report pKd for the following binder: ACAAACGCUAUAUAUAACACAAAC (ssRNA) [Id_ii_S3_P3E.3_K3.2_C3.2_[C-2G]_[T-1C]_H3.2_A3.1_F3.1_T3.2_[T9A]_[A10C]]
5.95

Quote pKd reported for UCUCUUUGUAUUCCAUUAUCUCUU (ssRNA) [Ie_S1_P4E.1_K4.1_C4.1_H4.1_A4.1_[+5TCC]_F4.1_T4.1] please.
7.21
